B1: library; a variant is named by its letters at N, in order (parent)
chain: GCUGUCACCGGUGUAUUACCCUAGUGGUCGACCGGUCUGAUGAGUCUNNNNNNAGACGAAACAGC

variants of: B1; assay: normalized RNA/DNA level with ligand (relative to sTRSVctl = 100) (log10 (% of sTRSVctl)); ligand: hypoxanthine (xanthine aptamer); higher = less ribozyme self-cleavage, higher mRNA level; conditions: ligand concentration (+) RNA-Seq: 5 mM, HEK293T, reporter: mCherry (pCS4076), ligand present: yes
ENDPOINT_LABEL: normalized RNA/DNA level with ligand (log10)

>>> data_value("ACGAGA")
1.67
>>> data_value("CCAACC")
1.94
>>> data_value("AAGUAU")
1.9
>>> data_value("CCACCA")
1.97
>>> data_value("AUACGG")
1.78
>>> data_value("UGUCCU")
1.95
>>> data_value("UAGCCA")
1.93
>>> data_value("UAAAUC")
1.93
>>> data_value("AGGGGC")
1.95
>>> data_value("ACUAUC")
1.98
>>> data_value("CAUUCA")
1.92
>>> data_value("ACUCGG")
1.87
>>> data_value("GGCCAG")
1.89
>>> data_value("CUCGCG")
1.98
>>> data_value("UGGCUC")
2.02
>>> data_value("CCACGG")
1.91
>>> data_value("UCUCUU")
1.94
>>> data_value("UGCACG")
1.92
>>> data_value("CGAAGG")
1.81
>>> data_value("AAGAUC")
1.97
>>> data_value("UCUUGU")
1.91
>>> data_value("UACACU")
1.91
